Assay read-out pIC50 on Tyrosine-protein phosphatase non-receptor type 9 (Homo sapiens, UniProt P43378); records merged from the literature.
Sequence (P43378 whole entry): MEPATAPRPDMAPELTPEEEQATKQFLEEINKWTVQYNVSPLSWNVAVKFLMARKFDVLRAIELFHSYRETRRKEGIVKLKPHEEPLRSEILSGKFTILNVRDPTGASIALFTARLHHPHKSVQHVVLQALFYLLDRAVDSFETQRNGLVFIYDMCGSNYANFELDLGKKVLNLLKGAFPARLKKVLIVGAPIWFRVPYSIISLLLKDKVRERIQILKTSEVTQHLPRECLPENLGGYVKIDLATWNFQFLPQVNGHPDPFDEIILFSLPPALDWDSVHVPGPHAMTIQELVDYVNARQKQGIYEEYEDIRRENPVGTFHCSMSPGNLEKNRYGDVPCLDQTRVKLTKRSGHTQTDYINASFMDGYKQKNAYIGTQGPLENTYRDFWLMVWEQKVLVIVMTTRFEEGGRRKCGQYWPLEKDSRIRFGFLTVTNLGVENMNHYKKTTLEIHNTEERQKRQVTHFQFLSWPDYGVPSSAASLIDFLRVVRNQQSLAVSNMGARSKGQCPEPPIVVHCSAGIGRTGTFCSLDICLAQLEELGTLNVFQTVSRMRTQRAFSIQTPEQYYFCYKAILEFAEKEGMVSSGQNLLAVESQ
pIC50: −log10 of the molar value.
Answer NOT MET if pIC50 is under 5, and MET if it is 5 or more.

Reference set (5 entries):
compound	groupLabel
O=C(O)c1cc2c(C#Cc3ccc(Oc4ccccc4)cc3)c(-c3ccccc3)oc2cc1O	MET
CCOP(=O)(O)C(NCCCCCCNC(c1ccccc1O)P(=O)(O)OCC)c1ccccc1O (stereo not given)	NOT MET
COc1cccc(C#Cc2c(-c3ccccc3)oc3cc(O)c(C(=O)O)cc23)c1	NOT MET
O=C(O)c1cc2c(CCc3cccc(F)c3)c(-c3ccccc3)oc2cc1O	NOT MET
CCOP(=O)(O)C(N[C@@H](C)C(=O)O)c1ccccc1O (stereo not given in full)	NOT MET

Input line: Given `O=C(O)c1cc2c(C#Cc3cccc(Cl)c3)c(-c3ccccc3)oc2cc1O` , state whether its pIC50 is at least 5.
Output line: MET

Input line: Could you verify whether the entry `O=C(O)c1cc2c(C#Cc3ccc(F)cc3F)c(-c3ccccc3)oc2cc1O` shows pIC50 of no less than 5?
Output line: MET

Input line: Identify whether the reported pIC50 of the following compound is 5 or greater: CCOP(=O)(O)C(N[C@@H](Cc1c[nH]c2ccccc12)C(=O)O)c1ccccc1O (stereo not given in full)
Output line: NOT MET

Input line: Could you please find out whether O=C(Nc1ccc(I)cc1)C(=O)Nc1ccc(NC(=O)C(c2ccccc2)S(=O)(=O)O)cc1 (stereo not given) has pIC50 that meets 5 or exceeds it?
Output line: NOT MET

Input line: Hello, I need to know if CCOP(=O)(O)C(NCC(=O)O)c1ccccc1O (stereo not given) has measured pIC50 not below 5. Thanks!
Output line: NOT MET

Input line: Has `CCOP(=O)(OCC)[C@H](Nc1ccc([N+](=O)[O-])cc1)c1ccccc1O` a recorded pIC50 greater than or equal to 5?
Output line: NOT MET

Input line: Is the recorded value of pIC50 equal to or greater than 5 for this compound? `C#Cc1c(-c2ccccc2)oc2cc(O)c(C(=O)O)cc12`
Output line: NOT MET

Input line: Is pIC50 for O=C(Nc1ccc(OCc2ccccc2)c(Cl)c1)C(c1ccccc1)S(=O)(=O)O (stereo not given) at or above 5?
Output line: NOT MET
